Documented pIC50 across a set of compounds
- system-under-test: catalytic domain (JH1, amino acids 826-1132) of human JAK2 (Homo sapiens)
- Construct: catalytic domain (JH1, amino acids 826-1132) of human JAK2; FLAG (N)
- Sequence (O60674 826-1132): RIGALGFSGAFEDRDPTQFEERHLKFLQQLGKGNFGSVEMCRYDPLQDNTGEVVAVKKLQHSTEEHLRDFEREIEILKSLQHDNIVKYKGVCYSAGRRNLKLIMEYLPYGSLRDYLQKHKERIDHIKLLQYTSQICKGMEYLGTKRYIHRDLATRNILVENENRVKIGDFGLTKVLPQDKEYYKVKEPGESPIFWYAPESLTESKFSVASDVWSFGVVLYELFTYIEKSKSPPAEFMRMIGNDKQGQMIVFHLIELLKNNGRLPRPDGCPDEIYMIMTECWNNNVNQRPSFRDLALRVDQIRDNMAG
- test-name: JAK2 LanthaScreen JH1 binding assay
- run-conditions: 50 nM tracer, 2 hours at 25° C., read-out: JH1 BIND IC50
pIC50: −log10 of the molar value.

Some entries whose results are on file:
COC(=O)N[C@@H]1CC[C@@H](n2c(=O)nc(N)c3cnc4[nH]c(-c5cnn(C)c5)c(-c5ccc6c(cnn6C(C)C)c5)c4c32)C1: 6.00 to 6.30
COC(=O)N[C@@H]1CC[C@@H](N2C(=O)NCc3cnc4[nH]c(-c5cnn(C)c5)c(-c5cccc(F)c5)c4c32)C1: < 6.00
COC(=O)N[C@@H]1CC[C@@H](N2C(=O)NCc3cnc4[nH]c(-c5cnn(C)c5)c(-c5ccc6c(cnn6C)c5)c4c32)C1: < 6.00
COC(=O)N[C@@H]1CC[C@@H](N2C(=O)NCc3cnc4[nH]c(-c5cnn(C)c5)c(-c5ccc6c(cnn6CCF)c5)c4c32)C1: 6.30 to 7.00
CC(C)COC(=O)N[C@@H]1CC[C@@H](N2C(=O)NCc3cnc4[nH]c(-c5cnn(C)c5)c(-c5ccc6c(cnn6C(C)C)c5)c4c32)C1: < 6.00

Reported pIC50 of CC(=O)N[C@@H]1CC[C@@H](N2C(=O)NCc3cnc4[nH]c(-c5cnn(C)c5)c(-c5ccc6c(cnn6C(C)C)c5)c4c32)C1 : < 6.00

Memo: COC(=O)N[C@H]1C[C@H](N2C(=O)NCc3cnc4[nH]c(C5CC5)c(-c5ccc6c(cnn6C(C)C)c5)c4c32)C1 , reported pIC50: < 6.00

Entry source: patent US20240300948A1
